tested on: SF-539 CNS; assay: NCI tumour cell line growth inhibition, 48 h; in the data active = GI50 below about 0.43 µM; inactive = the rest
A correct response names exactly one class from y = active, n = inactive

Q) Outcome? `Cc1ccc(C(=O)Nc2ccc(CN3CCN(C)CC3)c(C(F)(F)F)c2)cc1C#Cc1cnc(N)c2ccc(C#N)cc12`
A) n

Q) # repeat for `COc1ccc(NC(=O)COc2ccccc2)c(C(N)=O)c1`
A) n

Q) Lookup `CCCCCCCC(=O)SCC/C=C/[C@@H]1CC(=O)NCc2cccc(n2)C2=N[C@@](C)(CS2)C(=O)N[C@@H](C(C)C)C(=O)O1`
A) y

Q) `COc1cc2c(cc1OCCCOc1cc3c(cc1OC)C(=O)N1CC(F)(F)C[C@H]1C=N3)N=C[C@@H]1CC(F)(F)CN1C2=O` , same question.
A) y
